Recorded values, source patent US20250215029A1.

Biological target: pY641-STAT6 in PBMC (Homo sapiens)
Construct: Cryopreserved Peripheral Blood Mononuclear Cells (PBMC) are from AllCells; host or cells: cryopreserved PBMC
Sequence (P42226 whole entry): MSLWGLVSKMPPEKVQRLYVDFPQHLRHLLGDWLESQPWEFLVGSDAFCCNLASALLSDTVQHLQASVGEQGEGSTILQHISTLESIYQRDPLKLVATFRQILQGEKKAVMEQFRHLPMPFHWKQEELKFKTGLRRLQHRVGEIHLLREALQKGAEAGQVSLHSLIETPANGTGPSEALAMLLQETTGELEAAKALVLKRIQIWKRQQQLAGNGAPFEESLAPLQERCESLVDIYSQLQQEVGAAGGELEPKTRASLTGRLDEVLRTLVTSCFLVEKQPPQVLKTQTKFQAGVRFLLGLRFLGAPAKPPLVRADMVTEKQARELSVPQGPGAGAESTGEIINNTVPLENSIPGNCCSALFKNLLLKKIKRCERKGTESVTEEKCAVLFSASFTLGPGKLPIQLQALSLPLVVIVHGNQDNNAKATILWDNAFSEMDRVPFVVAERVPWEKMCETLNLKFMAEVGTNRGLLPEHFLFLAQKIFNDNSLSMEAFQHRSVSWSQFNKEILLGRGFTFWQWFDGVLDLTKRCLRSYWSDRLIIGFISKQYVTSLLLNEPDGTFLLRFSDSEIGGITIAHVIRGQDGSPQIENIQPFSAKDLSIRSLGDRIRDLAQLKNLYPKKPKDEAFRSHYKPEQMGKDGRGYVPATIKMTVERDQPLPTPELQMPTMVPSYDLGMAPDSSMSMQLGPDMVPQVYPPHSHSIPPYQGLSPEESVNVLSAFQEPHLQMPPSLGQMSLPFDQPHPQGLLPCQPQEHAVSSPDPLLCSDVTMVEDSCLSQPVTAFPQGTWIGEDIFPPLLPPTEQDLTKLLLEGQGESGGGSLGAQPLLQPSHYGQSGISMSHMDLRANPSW
Test: MSD-pSTAT-PBMC Assay (pSTAT6, IL-4 stimulated)
Type: cell-based
Conditions: STAT6, PBMC, compound 3 hrs, then 1 ng/mL IL-4 for 10 min; Table 115
Method: Cryopreserved Peripheral Blood Mononuclear Cells (PBMC) are from AllCells. Recombinant Human IL-4 and IL-6 are from Peprotech. […] Cyropreserved PBMCs were thawed out and allowed to recover overnight in IMDM+10% heat-inactivated FBS prior to plating 50,000 (STAT3) or 25,000 (STAT6) cells per well in 96-well U-bottom tissue culture plates. […] Assay plates were then washed and 150 μL of 1× Read Buffer-T (MSD) was added to each well prior to reading on an SQ120 MSD Plate Reader. […]
EXPERIMENTAL_READOUT: IC50

COMPOUND	IC50
CCCOC(=O)[C@H](C)NP(=O)(Oc1ccccc1)C(F)c1ccc2sc(C(=O)N[C@H]3CCCC[C@H]4CC[C@@H](C(=O)N5C(=O)N(c6ccn(C)c(=O)c6)C(=O)C56CC6)N4C3=O)cc2c1 (some centres unmarked)	100 to 1000 nM

Now, please, on to the next compound.
stdin: Determine from records and report IC50 for CCCOC(=O)[C@H](C)NP(=O)(Oc1ccccc1)[C@@H](F)c1ccc2sc(C(=O)N[C@H]3CCCC[C@H]4CC[C@@H](C(=O)N5C(=O)N(c6ccc(C)nc6)C(=O)C56CC6)N4C3=O)cc2c1 (some centres unmarked)
stdout: 100 to 1000 nM
